Molecular target: T1, rat α-CGRP (Rattus norvegicus, UniProt P01256)
T1 construct: rat α (1-37); purchased GenScript Corporation or Global Peptide Services
T1 sequence (P01256 83-119 limits assumed): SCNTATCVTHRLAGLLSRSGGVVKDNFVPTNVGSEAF
Assay: Biacore SPR affinity of Fab fragments to N-biotinylated rat α-CGRP on SA chip
Format: binding
Details: 37° C., screening mode except underlined values
EXPERIMENTAL READOUT: α-rat koff (s⁻¹)
Report as a plain number; the unit s⁻¹ is understood.

Some solved cases for reference:
MOLECULE	α-rat koff (s⁻¹)
M55: G1 variant; L1 R28N T30A; L2 L56S; H2 E54K A57N S58E E64D; HC-FW3 L99T A100V (antibody, V domains shown) VH: EVQLVESGGGLVQPGGSLRLSCAASGFTFSNYWISWVRQAPGKGLEWVAEIRSKSDNEATHYADAVKGRFTISRDNAKNSLYLQMNSLRAEDTAVYYCTVYFDYGLAIQNYWGQGTLVTVSS VL: EIVLTQSPATLSLSPGERATLSCKASKNVATYVSWYQQKPGQAPRLLIYGASNRYSGIPARFSGSGSGTDFTLTISSLEPEDFAVYYCSQSYNYPYTFGQGTKLEIK	0.00585
M62: G1 variant; L1 R28N T30G; L2 A51H L56T; H2 E54K A57N S58E; HC-FW3 L99T A100V (antibody, V domains shown) VH: EVQLVESGGGLVQPGGSLRLSCAASGFTFSNYWISWVRQAPGKGLEWVAEIRSKSDNEATHYAEAVKGRFTISRDNAKNSLYLQMNSLRAEDTAVYYCTVYFDYGLAIQNYWGQGTLVTVSS VL: EIVLTQSPATLSLSPGERATLSCKASKNVGTYVSWYQQKPGQAPRLLIYGHSNRYTGIPARFSGSGSGTDFTLTISSLEPEDFAVYYCSQSYNYPYTFGQGTKLEIK	0.00575
M38: G1 variant; L1 R28N T30W; HC-FW3 L99T A100V (antibody, V domains shown) VH: EVQLVESGGGLVQPGGSLRLSCAASGFTFSNYWISWVRQAPGKGLEWVAEIRSESDASATHYAEAVKGRFTISRDNAKNSLYLQMNSLRAEDTAVYYCTVYFDYGLAIQNYWGQGTLVTVSS VL: EIVLTQSPATLSLSPGERATLSCKASKNVWTYVSWYQQKPGQAPRLLIYGASNRYLGIPARFSGSGSGTDFTLTISSLEPEDFAVYYCSQSYNYPYTFGQGTKLEIK	0.00511

Let's switch to this molecule now.
Input line: α-rat koff for M60: G1 variant; L1 R28N T30D; L2 L56S; H2 E54K A57N S58R H61F; HC-FW3 L99T A100V (antibody, V domains shown) VH: EVQLVESGGGLVQPGGSLRLSCAASGFTFSNYWISWVRQAPGKGLEWVAEIRSKSDNRATFYAEAVKGRFTISRDNAKNSLYLQMNSLRAEDTAVYYCTVYFDYGLAIQNYWGQGTLVTVSS VL: EIVLTQSPATLSLSPGERATLSCKASKNVDTYVSWYQQKPGQAPRLLIYGASNRYSGIPARFSGSGSGTDFTLTISSLEPEDFAVYYCSQSYNYPYTFGQGTKLEIK ?
Output line: 0.0272
